Reference for the values: PubChem BioAssay AID504336

Assay: TOR branch reporter RPL19A-GFP response – cell-based, S. cerevisiae, third cherry pick, flow cytometry, confirmation (AID 504336);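 further: median GFP fluorescence of all gated yeast cells by flow cytometry; ratio of well median fluorescence to plate mean of DMSO wells with DMSO = 100%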
Settings: S. cerevisiae RPL19A-GFP strain, 3 h, at 10 µM, stronger effect = lower value
MEASURED_ATTRIBUTE: GFP response relative to DMSO (%)

[
  {
    "COMPOUND_STRUCTURE": "CN(C)C(=O)Oc1ccc(Cl)c2cccnc12",
    "MEASURED_ATTRIBUTE": "GFP response relative to DMSO",
    "RECORDED_RESULT": 101
  },
  {
    "COMPOUND_STRUCTURE": "Cc1ccc2c(c1N)C(=O)c1ccccc1C2=O",
    "MEASURED_ATTRIBUTE": "GFP response relative to DMSO",
    "RECORDED_RESULT": 101
  },
  {
    "COMPOUND_STRUCTURE": "CN1CCN(c2ncnc3ccc(Br)cc23)CC1",
    "MEASURED_ATTRIBUTE": "GFP response relative to DMSO",
    "RECORDED_RESULT": 99.3
  },
  {
    "COMPOUND_STRUCTURE": "C/C(O)=C(\\C#N)C(=O)Nc1cc(Br)ccc1Br",
    "MEASURED_ATTRIBUTE": "GFP response relative to DMSO",
    "RECORDED_RESULT": 97.5
  },
  {
    "COMPOUND_STRUCTURE": "CCN1CCN(c2ncnc3ccc(Br)cc23)CC1",
    "MEASURED_ATTRIBUTE": "GFP response relative to DMSO",
    "RECORDED_RESULT": 100
  }
]
